Source of measurements: patent US20070149465A1

Assay: Aqueous solubility of roxithromycin (pH, buffer, ethanol)
Type: physicochemical
Settings: phosphate buffer, 25 °C, pH 5, aqueous buffer, thermodynamic from solid, pH 5, 10 mM phosphate, 0% ethanol
Method: The solutions were syringe-filtered and analyzed by HPLC for [roxithromycin]. Roxithromycin Potency was assayed by a reverse-phase HPLC method that meets the requirements of the European Pharmacopeia (EP) Monograph for roxithromycin. Solution pH values were determined per USP <791> and solution osmolality values were determined per USP <785>. […]
measured attribute: solubility at 24 h (µg/mL)
Numeric answer only, unit µg/mL assumed.

query: Return the recorded solubility at 24 h value; entry: CC[C@H]1OC(=O)[C@H](C)[C@@H](O[C@H]2C[C@@](C)(OC)[C@@H](O)[C@H](C)O2)[C@H](C)[C@@H](O[C@@H]2O[C@H](C)C[C@H](N(C)C)[C@H]2O)[C@](C)(O)C[C@@H](C)/C(=N\OCOCCOC)[C@H](C)[C@@H](O)[C@]1(C)O [roxithromycin]
result: 3200
